biological target: HIV Env of isolate P1981_C5_3 (clade G) (HIV); test: cell-based or functional assay

binder	IC50 (µg/ml) with constrains
ePGDM9 (antibody, V domains shown) VH: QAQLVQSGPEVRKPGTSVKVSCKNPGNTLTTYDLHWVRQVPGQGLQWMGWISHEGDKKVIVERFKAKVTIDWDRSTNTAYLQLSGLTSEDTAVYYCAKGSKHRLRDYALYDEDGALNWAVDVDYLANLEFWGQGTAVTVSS VL: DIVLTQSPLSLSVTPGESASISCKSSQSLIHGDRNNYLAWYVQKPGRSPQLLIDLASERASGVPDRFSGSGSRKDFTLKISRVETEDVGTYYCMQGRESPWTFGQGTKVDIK	0.146 µg/mL
ePGDM5 (antibody, V domains shown) VH: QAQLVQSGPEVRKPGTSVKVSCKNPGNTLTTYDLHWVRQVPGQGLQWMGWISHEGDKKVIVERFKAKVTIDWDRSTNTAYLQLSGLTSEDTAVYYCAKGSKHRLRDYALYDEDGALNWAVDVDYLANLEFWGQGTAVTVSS VL: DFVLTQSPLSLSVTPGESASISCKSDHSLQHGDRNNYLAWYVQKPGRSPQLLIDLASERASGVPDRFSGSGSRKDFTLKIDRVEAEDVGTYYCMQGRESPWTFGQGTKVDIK	0.295 µg/mL
ePGDM13 (antibody, V domains shown) VH: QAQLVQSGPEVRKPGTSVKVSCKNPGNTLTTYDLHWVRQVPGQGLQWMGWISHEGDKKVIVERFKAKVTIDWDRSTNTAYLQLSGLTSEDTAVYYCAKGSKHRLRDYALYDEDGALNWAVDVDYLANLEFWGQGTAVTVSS VL: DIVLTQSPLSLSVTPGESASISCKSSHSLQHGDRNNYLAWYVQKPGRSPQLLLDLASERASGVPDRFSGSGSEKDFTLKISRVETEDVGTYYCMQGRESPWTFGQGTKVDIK	0.319 µg/mL
PGDM1400 (antibody, V domains shown) VH: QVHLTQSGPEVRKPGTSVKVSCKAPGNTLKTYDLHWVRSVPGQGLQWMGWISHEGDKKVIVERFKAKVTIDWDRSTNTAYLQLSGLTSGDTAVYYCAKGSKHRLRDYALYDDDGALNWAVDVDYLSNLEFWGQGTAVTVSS VL: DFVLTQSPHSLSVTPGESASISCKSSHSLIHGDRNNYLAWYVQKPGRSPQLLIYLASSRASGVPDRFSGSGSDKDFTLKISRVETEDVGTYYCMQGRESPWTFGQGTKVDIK	18.9 µg/mL
